- system-tested: human TrkA receptor (Homo sapiens)
- Sequence (P04629 33-796): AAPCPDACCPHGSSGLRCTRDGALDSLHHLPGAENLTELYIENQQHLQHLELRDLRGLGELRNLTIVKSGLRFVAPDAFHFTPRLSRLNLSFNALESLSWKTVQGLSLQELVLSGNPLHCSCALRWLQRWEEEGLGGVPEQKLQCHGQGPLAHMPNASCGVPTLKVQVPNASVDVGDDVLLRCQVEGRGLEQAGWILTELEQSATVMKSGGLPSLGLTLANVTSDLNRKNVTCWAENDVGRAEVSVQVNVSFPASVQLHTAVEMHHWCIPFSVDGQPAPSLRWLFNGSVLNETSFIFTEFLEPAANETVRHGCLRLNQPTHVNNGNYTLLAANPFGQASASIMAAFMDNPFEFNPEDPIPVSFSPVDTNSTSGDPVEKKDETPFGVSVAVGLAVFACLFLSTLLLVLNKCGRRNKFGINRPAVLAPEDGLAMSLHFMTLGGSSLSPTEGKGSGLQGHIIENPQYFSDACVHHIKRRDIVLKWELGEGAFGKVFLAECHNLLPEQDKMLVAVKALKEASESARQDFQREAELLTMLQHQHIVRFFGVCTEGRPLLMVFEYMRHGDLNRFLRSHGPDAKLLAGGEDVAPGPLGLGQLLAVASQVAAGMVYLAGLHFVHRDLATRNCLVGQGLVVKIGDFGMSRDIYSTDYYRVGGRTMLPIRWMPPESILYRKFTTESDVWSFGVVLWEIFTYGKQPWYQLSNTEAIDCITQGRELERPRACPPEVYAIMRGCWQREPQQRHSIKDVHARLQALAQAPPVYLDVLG
- assay: DiscoverX PathHunter TrkA functional assay (NGF-stimulated U2OS cells)
- conditions-used: U2OS cells expressing human TrkA-PK, Shc1-EA and p75NTR; compound 1 h, then NGF at ~80% of maximal response for 3 h; luminescence
readout-kind: IC50 (nM)

[1] CC(C)(O)c1ccc2nc(-c3ccccc3)c(NC(=O)c3ccc(C(F)(F)F)c(-c4ncccn4)c3)n2c1 [Compound 44]
[2] Cn1ccc(-c2cc(C(=O)Nc3c(-c4ccccc4)nc4cc(CNC(=O)CO)ccn34)ccc2C(F)(F)F)n1 [Compound 80]
Q: Lab log: flag the item ( 1 or 2 ) with the smaller IC50 figure. Identify your selection by its label.
Result: 1
(1: 1.4 nM, 2: 20 nM)
